- Tested on: diaphorase (Clostridium kluyveri)
- methodNotes: compounds blocking diaphorase resazurin reduction – biochemical, uHTS, resorufin fluorescence, counter-screen for diaphorase-coupled primary assays, primary screen (AID 1217);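 further: plate controls were DMSO with full reaction for no effect and wells lacking NADH for full effect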
- conditionParameters: diaphorase resazurin-to-resorufin fluorescence, NADH, 16 min; at 20 µM; hits give high values; bacterial (C. kluyveri) enzyme, not human
The whole screen tested about 190,000 compounds, of which about 1,300 (0.68%) were called active. The sample as a whole holds a higher share of actives than the screen did.
So I've got a bunch of molecules here, and I need their inhibition values.

Examples with answers:
molecule=COc1ccc(C(=O)NC(=S)NNC(=O)c2c(-c3ccccc3)noc2C)cc1 recordedmeasurement="38.4% (inactive)"
molecule=Cc1cc(C)nc(-n2nc(C)cc2NC(=O)c2ccc(F)cc2F)n1 recordedmeasurement="3.4% (inactive)"
molecule=COc1cccc(CN(C)CC(=O)Nc2ccccc2C(=O)Nc2ccccc2)c1 recordedmeasurement="26.6% (inactive)"

// for each molecule below, give its inhibition
1. O=C(OCC1O[C@@H](OC(=O)c2cc(O)c(O)c(O)c2)[C@@H](OC(=O)c2cc(O)c(O)c(O)c2)[C@@H](OC(=O)c2cc(O)c(O)c(O)c2)[C@@H]1OC(=O)c1cc(O)c(O)c(O)c1)c1cc(O)c(O)c(O)c1 (stereo not given in full)
2. Cc1cccc(C2c3[nH]c4ccccc4c3CCN2C(=O)c2cc(-c3cccn3C)n[nH]2)n1 (stereo not given)
3. CN1CCN(CC(=O)Nc2cccc([N+](=O)[O-])c2)CC1
4. Cc1ccc(N(C(=O)Cc2cccs2)C2C=CS(=O)(=O)C2)cc1Cl (stereo not given)
5. O=C(CCN1CCN(c2ccccc2)CC1)NNC(=S)Nc1ccccc1

Result:
["71.3% (active)", "37% (inactive)", "12% (inactive)", "12.1% (inactive)", "20.6% (inactive)"]

// for each molecule below, give its inhibition
1. COc1ccc(C[C@H]2CN3C(=NC[C@H]3C)N2CCNC(=O)CCC2CCCCC2)cc1
2. Cc1coc2c(O)cc3c(c12)OC1(N2CCCCC2)C(=O)NCCCC31 (stereo not given)
3. CC1CC1C(=O)OCC(=O)c1c(N)n(C)c(=O)n(C)c1=O (stereo not given)
4. N#CC1=C(N)Oc2[nH]c(=S)[nH]c(=O)c2C12C(=O)Nc1ccccc12 (stereo not given)

Result:
1. 0.9% (inactive)
2. 56.1% (active)
3. -19.7% (inactive)
4. 25.5% (inactive)

// for each molecule below, give its inhibition
1. O=C(Cc1cccs1)Nc1nnc(SCc2ccc(F)cc2)s1
2. CCn1c(O)c(N=NC(=O)c2cccc(S(=O)(=O)N3CCCCC3)c2)c2ccccc21
3. COC(=O)/C=C\C(=O)Nc1cccc([N+](=O)[O-])c1
4. CCn1c(O)c(N=NC2=NC(=O)CS2)c2cc(C)ccc21
5. COc1ccc(Nc2nc(N)nc(CSC(=S)N3CCC(C)CC3)n2)cc1
6. CC(=O)c1ccc(N2CCN(CC(=O)Nc3ccccc3N3CCOCC3)CC2)cc1
7. COc1ccc(C(=O)NC(=S)NNC(=O)CCc2ccccc2)cc1

Result:
11.1% (inactive)
29.2% (inactive)
-5.8% (inactive)
86.4% (active)
28.1% (inactive)
4% (inactive)
54% (active)

Task: Give its inhibition value. Item: CN1CCN(/N=C/c2ccc(-c3ccc([N+](=O)[O-])cc3)o2)CC1
Result: -3.7% (inactive)

====

- System: diaphorase (Clostridium kluyveri)
- methodNotes: compounds blocking diaphorase resazurin reduction – biochemical, uHTS, resorufin fluorescence, counter-screen for diaphorase-coupled primary assays, primary screen (AID 1217)
- conditionParameters: diaphorase resazurin-to-resorufin fluorescence, NADH, 16 min; at 20 µM; hits give high values; bacterial (C. kluyveri) enzyme, not human
Screen size: about 190,000 compounds; about 1,300 (0.68%) were called active. The sample holds actives, similar compounds and a random draw of the others, so the mix is not that of the screen.
So I've got a bunch of molecules here, and I need their inhibition values.
One number for each entry, in %.

Examples with answers:
molecule=COc1cccc(NC(=O)c2ccc(S(=O)(=O)N(C)C)cc2)c1 observationtype=inhibition readoutunits=% recordedmeasurement=5.6
molecule=CCCn1c(SCC(=O)N2CCc3ccccc32)nnc1-c1ccncc1 observationtype=inhibition readoutunits=% recordedmeasurement=6.2

// for each molecule below, give its inhibition
1. COc1cccc(C(=O)Oc2cc(C)[nH]c(=O)c2[N+](=O)[O-])c1
2. Cn1c(SCC(=O)N2CCCc3ccccc32)nc2ccccc2c1=O
3. Cc1cc2c(cc1C)[n+](C)cn2CC(O)COCC1CC=CCC1 (stereo unspecified)
4. O=C(CCn1ccc([N+](=O)[O-])n1)Nc1nccs1
5. O=C(CO/N=C/c1ccc(OC(F)F)cc1)NCc1ccc(F)cc1
6. Cc1[nH]n(-c2ccccc2)c(=O)c1/C=N/NC(=O)c1ccoc1C
7. CN1CCN(C(=O)C2=C[C@H](c3ccc4c(c3)OCO4)C[C@H](OCc3ccc(CO)cc3)O2)CC1
8. Cc1cccc(OP(=O)(Nc2c(C)n(C)n(-c3ccccc3)c2=O)Oc2cccc(C)c2)c1

Result:
1. 15.4
2. 5.1
3. 1.5
4. 9.2
5. 9.6
6. 50.1
7. 5.9
8. 14.1

Task: What reported inhibition corresponds to NC(=O)Cc1ccc2sc(-c3ccccc3)nc2c1 on diaphorase (Clostridium kluyveri)?
Result: 12.5

====

- Test system: diaphorase (Clostridium kluyveri)
- methodNotes: compounds blocking diaphorase resazurin reduction – biochemical, uHTS, resorufin fluorescence, counter-screen for diaphorase-coupled primary assays, primary screen (AID 1217);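 further: plate controls were DMSO with full reaction for no effect and wells lacking NADH for full effect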
- conditionParameters: diaphorase resazurin-to-resorufin fluorescence, NADH, 16 min; at 20 µM; bacterial (C. kluyveri) enzyme, not human
Among all 190,000 compounds or so, about 1,300 (0.68%) were called active.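 The calls were made as follows: active = primary screen inhibition at 20 µM above a set limit (cut at about 50% in these data); inactive = the rest.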 Many of the other results were omitted from the sample, so actives are more common in it than they were.
Result category, one only: t = active, f = inactive

compound=CN(C(=O)c1c(Cl)cnn1C)C12CC3CC(CC(C3)C1)C2 categorylabel=f
compound="COc1cccc(CC2(CO)CCCN(Cc3nc(-c4cccs4)oc3C)C2)c1 (stereo not drawn)" categorylabel=f
compound="CC1CCC2(CC1)NC(=O)N(Cc1nnc(-c3cccs3)o1)C2=O (stereo not drawn)" categorylabel=f
compound=O=C(CSc1nnc(-c2cccnc2)n1Cc1ccco1)c1ccc(Cl)c(Cl)c1 categorylabel=f
compound=CC(C)c1ccc(Nc2nnc(SCC(=O)c3nnc(-c4ccccc4)o3)s2)cc1 categorylabel=f
compound=Cc1ccc(S(=O)(=O)N/N=C\c2cc3c(cc2[N+](=O)[O-])OCO3)cc1 categorylabel=f
compound="S=C(NCC1CCCO1)N1CCN(c2ccc(Cl)c(Cl)c2)CC1 (stereo not drawn)" categorylabel=f
compound=O=C(Oc1ccccc1)c1ccc2nccnc2c1 categorylabel=f

Task: Test call, this compound: CC1=C/C(=N\OS(=O)(=O)c2ccccc2)C=CC1=O
Result: t

Task: And then Cc1cc(C)n(CC(=O)Nc2ccc([N+](=O)[O-])cc2)n1 , what is it?
Result: f

Task: And then CCOC(=O)C1(S(=O)(=O)c2ccccc2)CCN(Cc2ccccc2)CC1 , what is it?
Result: f

Task: And then Cc1nc(-c2ccc(Cl)cc2)sc1C(=O)CBr , what is it?
Result: t

Task: And then COc1ccccc1Oc1ccc(S(=O)(=O)Nc2cccnc2)cc1 , what is it?
Result: f

====

- System: diaphorase (Clostridium kluyveri)
- methodNotes: compounds blocking diaphorase resazurin reduction – biochemical, uHTS, resorufin fluorescence, counter-screen for diaphorase-coupled primary assays, primary screen (AID 1217);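 further: plate controls were DMSO with full reaction for no effect and wells lacking NADH for full effect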
- conditionParameters: diaphorase resazurin-to-resorufin fluorescence, NADH, 16 min; at 20 µM; hits give high values; bacterial (C. kluyveri) enzyme, not human
About 1,300 (0.68%) of roughly 190,000 compounds were called active. The full list was thinned out, with actives kept by preference.
observationType: inhibition (%)
One number for each entry, in %.

molecule=S=c1[nH]nc(-c2cccs2)n1/N=C/c1cccs1 recordedmeasurement=51.3

// for each molecule below, give its inhibition
1. Cc1cc(C)c(C#N)c(SCc2[nH]nc3c2C(c2ccccc2)C(C#N)=C(N)O3)n1 (stereo unspecified)
2. CCCCNC(=O)c1ccc(-n2c(=S)[nH]c3ccccc3c2=O)cc1
3. O=C(COC(=O)/C=C/c1cccc(Cl)c1)NCCc1ccccc1
4. NC(=O)c1sc2nc3c(c(-c4ccccc4)c2c1N)CCC3
5. O=C(CSc1ccc(-c2ccco2)nn1)NCc1ccc2c(c1)OCO2

Result:
1. 53
2. 6.2
3. 8
4. 36.8
5. 18.6

====

- Tested on: diaphorase (Clostridium kluyveri)
- methodNotes: compounds blocking diaphorase resazurin reduction – biochemical, uHTS, resorufin fluorescence, counter-screen for diaphorase-coupled primary assays, primary screen (AID 1217);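 further: plate controls were DMSO with full reaction for no effect and wells lacking NADH for full effect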
- conditionParameters: diaphorase resazurin-to-resorufin fluorescence, NADH, 16 min; at 20 µM; hits give high values; bacterial (C. kluyveri) enzyme, not human
About 1,300 (0.68%) of roughly 190,000 compounds were called active. This excerpt belongs to a sample that is enriched for actives.
observationType: inhibition (%)
One number for each entry, in %.

Examples with answers:
compound="CC(=O)C1=C(O)C(=O)N(c2cccnc2)C1c1ccc([N+](=O)[O-])cc1 (stereo not drawn)" readoutunits=% recordedmeasurement=9.5
compound=C=CCOc1c(CNn2cn[nH]c2=S)cccc1OC readoutunits=% recordedmeasurement=39.3
compound="OC(COc1ccc(CN2CCSCC2)cc1)CN1CCCCC1 (stereo not drawn)" readoutunits=% recordedmeasurement=6.8
compound=C/C(O)=C\c1nc(=O)c2c(C)cc(C)nc2n1-c1ccccc1 readoutunits=% recordedmeasurement=13.4
compound=O=C(CSc1nc2ccccc2[nH]1)Nc1nc(-c2ccccc2)c(-c2ccccc2)o1 readoutunits=% recordedmeasurement=12.3

// for each compound below, give its inhibition
1. Cc1ccc(O)c(NC(=S)NC(=O)COc2ccc(Br)cc2)c1
2. C/C(=N\Nc1ccc([N+](=O)[O-])cc1)c1ccc(-n2nncc2C(C)(C)C)cc1

Result:
1. 1.8
2. 5

// for each compound below, give its inhibition
1. CCOc1ccc(CN2CCN(Cc3ccc(C)o3)CC2CCO)cc1 (stereo not drawn)
2. COc1ccc2c(c1)C(C)=CC(C)(C)N2C(=O)CNCc1ccc2c(c1)OCO2

Result:
-6.4
34.2
